Tested on: DU-145 prostate
Assay: NCI-60 one-dose screen, 48 h
Conditions: 10 µM unless noted
This is part of a sample that, as a whole, favours compounds with a hit. Of some 83,000 tested, about 20% had one in any assay. Activity calls are given as the source filed them. The calls were made as follows: active = growth percent below 10; inactive = the rest.
Labels: 1.0 = active, 0.0 = inactive

molecule=NCCCNc1nc2ccccc2c2c(=O)c3cc(C(F)(F)F)ccc3sc12 targetundertest="DU-145 prostate" discretelabel=1.0
molecule=COc1cccc(Oc2ccccc2NC(=O)CNC(=O)c2cccc3ccccc23)c1 targetundertest="DU-145 prostate" discretelabel=1.0
molecule="CC1(C)C2CC1C1(/C=N\\Nc3ccccc3)C(C2)C(C#N)(C#N)C1(C#N)C#N (stereo unspecified)" targetundertest="DU-145 prostate" discretelabel=0.0
molecule=CN(C)c1ccc(/C=N\Nc2cc(=O)[nH]c3ccc(Cl)cc23)cc1 targetundertest="DU-145 prostate" discretelabel=0.0
molecule=COc1ccc(-c2[nH]c3ccc(OC)cc3c2/C=C(\C#N)S(=O)(=O)c2ccccc2)cc1 targetundertest="DU-145 prostate" discretelabel=0.0
molecule=O=C(Nc1ccc(F)cc1F)c1cc(F)ccc1O targetundertest="DU-145 prostate" discretelabel=0.0
molecule=CNC(=O)c1cc(-n2ccc3cc(NC(=O)c4ccc(N5CCOCC5)c(C(F)(F)F)c4)ccc32)ccn1 targetundertest="DU-145 prostate" discretelabel=0.0
molecule="CC1(C)C2CC1C1(/C=N/NC(N)=S)C(C2)C(C#N)(C#N)C1(C#N)C#N (stereo unspecified)" targetundertest="DU-145 prostate" discretelabel=0.0
molecule=COc1cc(/C=C/c2c(C(C)=O)c(C)nc3ccccc23)cc(OC)c1OC targetundertest="DU-145 prostate" discretelabel=0.0
molecule=Cc1cc(=O)oc2cc(OC(=O)N3CCN(C)CC3)ccc12 targetundertest="DU-145 prostate" discretelabel=0.0
molecule=COc1ccc(C(=O)n2nc(-c3ccccc3)nc2N)cc1OC targetundertest="DU-145 prostate" discretelabel=0.0
molecule=N#Cc1c(-c2ccc(Cl)cc2)nc(NCCO)[nH]c1=O targetundertest="DU-145 prostate" discretelabel=0.0
molecule=COc1nc2ccccc2cc1-c1nc2c(cnn2-c2ccccc2)c(=O)[nH]1 targetundertest="DU-145 prostate" discretelabel=0.0
molecule=O=c1ccc(N=Nc2ccc([N+](=O)[O-])cc2)ccc1O targetundertest="DU-145 prostate" discretelabel=0.0
molecule=COc1cc(C(=O)c2cnc(-c3cccc4[nH]ccc34)[nH]2)cc(OC)c1OC targetundertest="DU-145 prostate" discretelabel=1.0
molecule=C[C@H](C(=O)Nc1ccc(S(N)(=O)=O)cc1)S(=O)(=O)c1ccccc1 targetundertest="DU-145 prostate" discretelabel=0.0
molecule=CCN(CC)CCNC(=O)c1cn2ncnc(Oc3ccc(NC(=O)Nc4ccc(Cl)c(C(F)(F)F)c4)cc3)c2c1C targetundertest="DU-145 prostate" discretelabel=1.0
molecule=Cc1cccc2c(=O)c3c(sc12)c(NCc1ccccc1)nc1ccccc13 targetundertest="DU-145 prostate" discretelabel=0.0
molecule="CCOC(=O)C1=C(N)Oc2c(sc3c(C)cccc23)C1c1ccc(Cl)cc1 (stereo unspecified)" targetundertest="DU-145 prostate" discretelabel=0.0
molecule="CCCCCCCNC(=O)CCCNc1ncnc2c1ncn2-c1cccc(C(C)O)c1 (stereo unspecified)" targetundertest="DU-145 prostate" discretelabel=0.0
molecule=O=c1cc(SCc2ccccc2)nc[nH]1 targetundertest="DU-145 prostate" discretelabel=0.0
